System: human lung cancer strain NCI-H441
Format: cell-based
pIC50: −log10 of the molar value. Where a SMILES comes first, the peptide text is derived from it. Bridges are numbered along the chain shown (N, C = ends). [ ]: non-standard residue; d: D form. The star is where a group is joined. hPhe(3-Cl-4-CF3) = N[C@@H](CCc1ccc(C(F)(F)F)c(Cl)c1)C(=O)O; NPrPhe(4-CF3) = CCCN[C@@H](Cc1ccc(C(F)(F)F)cc1)C(=O)O; NMeGly(cPent) = CN[C@H](C(=O)O)C1CCCC1; Pro(4,4-F2) = O=C(O)[C@@H]1CC(F)(F)CN1; NMeL = CN[C@@H](CC(C)C)C(=O)O; Morpholide = C1CN(*)CCO1; Ac4c = NC1(C(=O)O)CCC1; Sar = CNCC(=O)O
parameter_measured: pIC50

>  <compound>
CCCOC[C@H]1C(=O)N[C@@H]([C@@H](C)CC)C(=O)N(C)CC(=O)N(C)[C@H]2C/C=C\CCN(C2=O)[C@@H](Cc2ccc(C(F)(F)F)cc2)C(=O)N(C)CC(=O)N[C@@H](CCc2cc(F)c(C(F)(F)F)c(F)c2)C(=O)N2C[C@H](OCC)C[C@H]2C(=O)NC2(CC(F)(F)C2)C(=O)N(C)[C@@H](C2CCCC2)C(=O)N(C)[C@H](C(=O)N(C)CCC)CC(=O)N1C

>  <quantitative_result>
8.28

$$$$
>  <compound>
CCC[C@H]1C(=O)N[C@@H]([C@@H](C)CC)C(=O)N2CCC[C@H]2C(=O)N(C)[C@H]2C/C=C\CCN(C2=O)[C@@H](Cc2ccc(C)cc2)C(=O)N(C)CC(=O)N[C@@H](CCc2ccc(C(F)(F)F)c(OC)c2)C(=O)N2C[C@H](OCC)C[C@H]2C(=O)N(C)C2(CCC2)C(=O)N(C)[C@@H](C(CC)CC)C(=O)N(C)[C@H](C(=O)N(C)C)CC(=O)N1C

>  <quantitative_result>
8.19

$$$$
>  <compound>
CCO[C@@H]1C[C@H]2C(=O)NC3(CC(C)(C)C3)C(=O)N(C)[C@@H](C3CCCC3)C(=O)N(C)[C@H](C(=O)N(C)C)CC(=O)N(C)[C@@H]([C@H](C)OC)C(=O)N[C@@H]([C@@H](C)CC)C(=O)N3CCC[C@H]3C(=O)N(C)[C@H]3C/C=C\CCN(C3=O)[C@@H](Cc3ccc(C(F)(F)F)cc3)C(=O)N(C)CC(=O)N[C@@H](CCc3ccc(C(F)(F)F)c(OC)c3)C(=O)N2C1

>  <quantitative_result>
7.15

$$$$
>  <compound>
CC[C@H](C)[C@@H]1NC(=O)[C@H](CC)N(C)C(=O)C[C@@H](C(=O)N(C)C)N(C)C(=O)[C@H](C2CCCC2)N(C)C(=O)C2(CC(C)(C)C2)NC(=O)[C@@H]2C[C@@H](C)CN2C(=O)[C@H](CCc2ccc(C(F)(F)F)c(Cl)c2)NC(=O)CN(C)C(=O)[C@H](Cc2ccc(C)cc2)N2CC/C=C\C[C@@H](C2=O)N(C)C(=O)CN(C)C1=O

>  <quantitative_result>
8.01

$$$$
>  <compound>
CCCN1C(=O)CN(C)C(=O)CNC(=O)[C@H]([C@@H](C)CC)NC(=O)[C@H](CC(C)C)N(C)C(=O)C[C@@H](C(=O)N2CCOCC2)NC(=O)[C@H](C2CCCC2)N(C)C(=O)C2(CCC2)NC(=O)[C@@H]2CC(F)(F)CN2C(=O)[C@H](CCc2ccc(C(F)(F)F)c(Cl)c2)NC(=O)CN(C)C(=O)[C@@H]1Cc1ccc(C(F)(F)F)cc1 [PP0328] ([NMeL]IG[Sar][NPrPhe(4-CF3)][Sar][hPhe(3-Cl-4-CF3)][Pro(4,4-F2)][Ac4c][NMeGly(cPent)]D-Morpholide; lactam N-11)

>  <quantitative_result>
6.62

$$$$

All values here come from patent EP4603105A1.
